B1: EMD (parent)
chain: YQSKGYNDDYYEESYFTTRTYGEP

variants of: B1; assay: protein stability index of a GFP-peptide fusion (GPS, HEK-293T) (PSI 1-6); higher = more stable; conditions: c terminus: a fixed tail appended;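 note: lentivirally expressed fusions sorted by FACS into six bins by GFP to DsRed ratio, PSI derived from sequencing read proportions per bin multiplied by bin number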
Readout type: protein stability index

Recorded results for 5 variants are shown here.
Residue change: D8Y
protein stability index: 1.72
--
Residue change: D8E
protein stability index: 2.13
--
Residue change: T17F
protein stability index: 1.85
--
Residue change: E23L
protein stability index: 2.18
--
Residue change: S3D
protein stability index: 3.31

Query: May I ask what protein stability index has been recorded for T17P ?
Result: 2.4

Query: May I ask what protein stability index has been recorded for D8L ?
Result: 2.37

Query: May I ask what protein stability index has been recorded for N7A ?
Result: 2.25

Query: May I ask what protein stability index has been recorded for P24S ?
Result: 2.29

Query: May I ask what protein stability index has been recorded for T17K ?
Result: 2.56

Query: May I ask what protein stability index has been recorded for Y6A ?
Result: 3.26

Query: May I ask what protein stability index has been recorded for Y15P ?
Result: 2.35

Query: May I ask what protein stability index has been recorded for Y6N ?
Result: 3.16

Query: May I ask what protein stability index has been recorded for Y21H ?
Result: 2.86

Query: May I ask what protein stability index has been recorded for Y1W ?
Result: 2.61

Query: May I ask what protein stability index has been recorded for R19T ?
Result: 2.81

Query: May I ask what protein stability index has been recorded for E13P ?
Result: 1.74

Query: May I ask what protein stability index has been recorded for E12L ?
Result: 2.14
